B1: CPEB3 Ribozyme (parent)
chain: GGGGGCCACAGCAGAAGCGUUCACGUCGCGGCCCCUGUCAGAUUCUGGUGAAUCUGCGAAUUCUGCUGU

Variants of: B1
Assay: self-cleavage, relative activity (ratio to wild type); higher = more cleavage; co-transcriptional
reported_property: self-cleavage
In your answer, state the number alone without any accompanying words.

In the examples that follow, each entry is paired with its recorded self-cleavage.
GGGGACCACAGCAGAAGCGUUCACGUCGCGGCCCCUGUCAGAUUCUGGUGAAUCCGCGAAUUCUGCUGU [G5A U55C] = 0.403
GGGGGCCACAGCAGAAGCGUUCACGUCGCGGGCCCUGUCAGAUUCUGGUGAAUCUGCGAAUUCUGCUGU [C32G] = 0.584
GGGGGCCACAGACGAAGCGUUCACGUCGCGGCCCCUGUCAGAUUCUGGUGAAUCUGCGAAUUCUGCUGU [C12A A13C] = 0.199
GGGGGCCACAGCAGAAGCGUUGACGUCGCGGCCCCUGUCAGAUUCUGGUGAAUCUGCGAAUUCUGCGGU [C22G U67G] = 0.121

INPUT: Can you share its self-cleavage? I mean this variant: GGGGGCCACAGCAGAAGCGUUCACGUCGCGCCCCCUGUCAGAUUCUGGUGAAUCUGCGAAUUCCGCUGU [G31C U64C]
OUTPUT: 0.273
